system: K-562 leukemia; experiment: NCI-60 one-dose screen, 48 h; conditions: 10 µM
About 83,000 compounds went through this panel and 20% of them were active in at least one assay; those are over-represented in the sample as a whole. Activity calls are given as the source filed them. Rule for the calls: active = growth percent below 10; inactive = the rest.
Assign a class; possible classes are active, inactive

Example results:
COMPOUND	SUBJECT_OF_TEST	LABEL
O=C1/C=C/[C@@H](O)[C@@H]2C[C@@H](O)C[C@H]2/C=C/CCC[C@H](C(F)(F)F)O1	K-562 leukemia	inactive
Nc1c(Br)cc(Br)c2c1[nH]c(=O)c1ccccc12	K-562 leukemia	inactive
CCOC(=O)C1=CSC2=NC3=C(CCC/C3=C\c3cc(OC)c(OC)c(OC)c3)C(c3cc(OC)c(OC)c(OC)c3)N12 (stereo not given)	K-562 leukemia	inactive
NC(N)=N/N=C(\N=Nc1ccccc1)c1ccc(Cl)cc1	K-562 leukemia	active
O=C(O)COc1c(Cl)cc([N+](=O)[O-])cc1Cl	K-562 leukemia	inactive
O=C(O)c1ccc(-n2cc(CNc3ccc(Cl)cc3)c(-c3ccccc3)n2)cc1	K-562 leukemia	inactive

*Q* Which outcome did this test record for the compound COc1ccc(-c2nn(-c3cccc(Cl)c3)cc2/C=C2\NC(=S)N(c3ccc(Cl)cc3)C2=O)cc1 ?
*A* active

*Q* Returns: the outcome recorded for CC1(C)N=C(N)N=C(N)N1c1cccc(C#N)c1 in this assay.
*A* inactive

*Q* Call for entry Cc1c(O)c(=O)ccn1C1CCC(CC2CCC(n3ccc(=O)c(O)c3C)CC2)CC1 (stereo not given) :
*A* inactive

###

Tested on: NCI/ADR-RES ovarian
Experiment: NCI-60 one-dose screen, 48 h (100 = growth as untreated, 0 = no growth, -100 = all killed)
Settings: 10 µM
Method: Growth inhibition of the NCI/ADR-RES human […] tumor cell line is measured as a screen for anti-cancer activity. Cells are grown in 96 well plates and exposed to the test compound for 48 hours. Compounds are tested at a single concentration, which is 10^-5 M for most compounds. The reported endpoint is percent growth (GI% or GIPRCNT), where numbers from 0 - 100% represent growth inhibition, and numbers from -100% - 0 represent cell death. For example, a value of 40 represents 60% growth inhibition. […]
The panel holds about 83,000 compounds, 20% with a hit somewhere; the sample as a whole holds those more often.
Label rule, in plain words: growth of 70% and up is yes, under 70% is no.

MOLECULE	LABEL
COc1ccc(-c2nn(-c3cccc(Cl)c3)cc2-c2nc(N)[nH]c(=O)c2C#N)cc1	no
c1cncc(-c2csc(-c3c[nH]c4ccccc34)n2)c1	yes
CNC(=O)c1cn2c3c(c(N4CCN(C)CC4)c(F)cc3c1=O)OC[C@@H]2C	yes

*Q* State whether the measured growth reaches 70%, counting equality as reaching it, for Cc1c(C(N)=O)sc2c1c(=O)n(Cc1ccccc1)c1nnc(-c3ccc(Br)cc3)n21
*A* no

*Q* Reported growth at or above 70%? CCc1ccc(-c2ccc(-n3nc(C)c4c(N)nc(Cc5ccccc5)nc43)cc2)cc1
*A* no

*Q* Determine whether measured growth meets or exceeds 70% for CC(=O)O[C@@]12CO[C@@H]1C[C@H](O)[C@@]1(C)C(=O)[C@H](O)C3=C(C)[C@@H](OC(=O)[C@H](O)[C@@H](NC(=O)OC(C)(C)C)c4ccccc4)C[C@@](O)([C@@H](OC(=O)c4ccccc4)C12)C3(C)C (stereo partly drawn)
*A* no

*Q* Item COc1ccc(/C=c2\sc3n(c2=O)C(c2cc(OC)c(OC)c(OC)c2)C=C(c2ccc(OC)c(OC)c2)N=3)cc1OC (stereo not drawn) with growth of 70% or above?
*A* yes

*Q* Threshold query (growth >= 70%) on CCn1c(SCc2ccc(C)cc2)nnc1-c1nn(-c2ccc(Cl)cc2Cl)c(-c2ccc(Cl)cc2)c1C
*A* no
